Target: T1, Anti-CD28 Fab (SEQ ID NOs: 202, 203)
T1 construct: biotinylated and captured on neutravidin coated plates in the phage ELISA
T1 sequence (VH, as listed by the source, chain 1 of 2): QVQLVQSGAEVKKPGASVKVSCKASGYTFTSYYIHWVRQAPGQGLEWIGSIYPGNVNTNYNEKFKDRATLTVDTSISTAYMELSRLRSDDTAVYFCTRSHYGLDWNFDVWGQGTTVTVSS
T1 sequence (VL, as listed by the source, chain 2 of 2): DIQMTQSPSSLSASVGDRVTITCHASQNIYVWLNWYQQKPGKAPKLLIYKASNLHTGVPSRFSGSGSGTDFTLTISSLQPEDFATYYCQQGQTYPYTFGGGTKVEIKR
Test: phage ELISA on captured biotinylated Fab;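 note: wells preblocked with or without CD28 antigen, then clonal phage supernatant added briefly, washed, and bound phage read out by ELISA using HRP-linked anti-M13 antibody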
Let's look at some binders and their measured Anti-CD28 Fab signal.
Reply with the value as a number alone.

INSERT INTO results (binder, measured_attribute, measured) VALUES
  ('YCSGHAPIYMAKCL [Phage-200]', 'Anti-CD28 Fab signal', 2.1),
  ('YCVGHLPQYMEKCL [Phage-267]', 'Anti-CD28 Fab signal', 1.98),
  ('YCEGHAIQYMSKCL [Phage-239]', 'Anti-CD28 Fab signal', 2.04);

Proceed to the following item.
Tell us which Anti-CD28 Fab signal value is on record for YCEGHAREHMAKCL [Phage-250]
2.02
